B1: Caulobacter ParB omega fusion; a variant is named by its letters at X, in order, B8GW30 (parent)
chain: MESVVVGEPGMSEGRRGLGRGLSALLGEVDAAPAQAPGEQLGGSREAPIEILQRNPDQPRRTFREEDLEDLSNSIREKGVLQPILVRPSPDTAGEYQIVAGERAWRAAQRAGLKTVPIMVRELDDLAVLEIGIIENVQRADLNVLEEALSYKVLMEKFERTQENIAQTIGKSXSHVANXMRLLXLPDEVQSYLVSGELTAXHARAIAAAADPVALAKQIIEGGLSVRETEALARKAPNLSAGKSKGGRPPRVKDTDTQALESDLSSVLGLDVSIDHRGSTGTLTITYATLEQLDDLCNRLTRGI

Variants of: B1
Assay: one-hybrid fitness for binding NBS DNA (the Noc-binding site; scaled: cognate 1, non-cognate 0); higher = stronger binding
Details: with NBS DNA site
Over roughly 81,000 sequences, “one-hybrid fitness for binding NBS DNA” has its median near -0.1; the highest 2% begin near 0.36. The full list was thinned out, with the highest values kept by preference.
Quantity measured: one-hybrid fitness for binding NBS DNA
Lab note: record just the number, no unit beside it.

[[record]]
mutant_name = "QMPT"
quantitative_result = 0.312

[[record]]
mutant_name = "QMLT"
quantitative_result = 0.395

[[record]]
mutant_name = "QMQT"
quantitative_result = 0.392


# next variant below
Entry RVRT has what one-hybrid fitness for binding NBS DNA?
0.631
